The entries below come with measured PI of dendriplex values attached.
# Tested on: anti-miR-21 oligo(2′-O-methylribonucleotide)
# Method summary: DLS of dendriplexes with anti-miR-21 oligonucleotide
# Format: physicochemical
# Experimental context: CR 5
Readout kind: PI of dendriplex

Compound smiles	Readout kind	Endpoint value
CCCCCCCCCCCCNC(=O)c1ccc(OCCC[Si](CCCSCC(=O)NCCC[P+](c2ccccc2)(c2ccccc2)c2ccccc2)(CCCSCC(=O)NCCC[P+](c2ccccc2)(c2ccccc2)c2ccccc2)CCCSCC(=O)NCCC[P+](c2ccccc2)(c2ccccc2)c2ccccc2)cc1	PI of dendriplex	0.3
CCCCCCCCCCCCNC(=O)c1cc(OCCC[Si](CCCSCC(=O)NCCC[P+](c2ccccc2)(c2ccccc2)c2ccccc2)(CCCSCC(=O)NCCC[P+](c2ccccc2)(c2ccccc2)c2ccccc2)CCCSCC(=O)NCCC[P+](c2ccccc2)(c2ccccc2)c2ccccc2)cc(C(=O)NCCCCCCCCCCCC)c1	PI of dendriplex	0.3
CCCCCCCCCCCCCCCCCCNC(=O)c1ccc(OCCC[Si](CCCSCC(=O)NCCC[P+](c2ccccc2)(c2ccccc2)c2ccccc2)(CCCSCC(=O)NCCC[P+](c2ccccc2)(c2ccccc2)c2ccccc2)CCCSCC(=O)NCCC[P+](c2ccccc2)(c2ccccc2)c2ccccc2)cc1	PI of dendriplex	0.4
CCCCCCCCCCCCNC(=O)c1cc(OCCC[Si](CCCSCC(=O)NCCC[P+](c2ccccc2)(c2ccccc2)c2ccccc2)(CCCSCC(=O)NCCC[P+](c2ccccc2)(c2ccccc2)c2ccccc2)CCCSCC(=O)NCCC[P+](c2ccccc2)(c2ccccc2)c2ccccc2)cc(OCCC[Si](CCCSCC(=O)NCCC[P+](c2ccccc2)(c2ccccc2)c2ccccc2)(CCCSCC(=O)NCCC[P+](c2ccccc2)(c2ccccc2)c2ccccc2)CCCSCC(=O)NCCC[P+](c2ccccc2)(c2ccccc2)c2ccccc2)c1	PI of dendriplex	0.10

* * *

The entries below come with measured PI of dendriplex values attached.
# Tested on: anti-miR-21 oligo(2′-O-methylribonucleotide)
# Method summary: DLS of dendriplexes with anti-miR-21 oligonucleotide
# Assay type: physicochemical
# Experimental context: CR 2.5
Readout kind: PI of dendriplex

Compound smiles	Endpoint value
CCCCCCCCCCCCNC(=O)c1ccc(OCCC[Si](CCCSCC(=O)NCCC[P+](c2ccccc2)(c2ccccc2)c2ccccc2)(CCCSCC(=O)NCCC[P+](c2ccccc2)(c2ccccc2)c2ccccc2)CCCSCC(=O)NCCC[P+](c2ccccc2)(c2ccccc2)c2ccccc2)cc1	0.2
CCCCCCCCCCCCNC(=O)c1cc(OCCC[Si](CCCSCC(=O)NCCC[P+](c2ccccc2)(c2ccccc2)c2ccccc2)(CCCSCC(=O)NCCC[P+](c2ccccc2)(c2ccccc2)c2ccccc2)CCCSCC(=O)NCCC[P+](c2ccccc2)(c2ccccc2)c2ccccc2)cc(OCCC[Si](CCCSCC(=O)NCCC[P+](c2ccccc2)(c2ccccc2)c2ccccc2)(CCCSCC(=O)NCCC[P+](c2ccccc2)(c2ccccc2)c2ccccc2)CCCSCC(=O)NCCC[P+](c2ccccc2)(c2ccccc2)c2ccccc2)c1	0.2
CCCCCCCCCCCCCCCCCCNC(=O)c1ccc(OCCC[Si](CCCSCC(=O)NCCC[P+](c2ccccc2)(c2ccccc2)c2ccccc2)(CCCSCC(=O)NCCC[P+](c2ccccc2)(c2ccccc2)c2ccccc2)CCCSCC(=O)NCCC[P+](c2ccccc2)(c2ccccc2)c2ccccc2)cc1	0.2

* * *

# Tested on: anti-miR-21 oligo(2′-O-methylribonucleotide)
# Method summary: DLS of dendriplexes with anti-miR-21 oligonucleotide
# Assay type: physicochemical
# Experimental context: CR 1.2, anti-miR-21 500 nM, 0.9% NaCl
The entries below come with measured mean diameter of dendriplex values attached.

Compound smiles	Target system	mean diameter of dendriplex (μm)
CCCCCCCCCCCCNC(=O)c1cc(OCCC[Si](CCCSCC(=O)NCCC[P+](c2ccccc2)(c2ccccc2)c2ccccc2)(CCCSCC(=O)NCCC[P+](c2ccccc2)(c2ccccc2)c2ccccc2)CCCSCC(=O)NCCC[P+](c2ccccc2)(c2ccccc2)c2ccccc2)cc(OCCC[Si](CCCSCC(=O)NCCC[P+](c2ccccc2)(c2ccccc2)c2ccccc2)(CCCSCC(=O)NCCC[P+](c2ccccc2)(c2ccccc2)c2ccccc2)CCCSCC(=O)NCCC[P+](c2ccccc2)(c2ccccc2)c2ccccc2)c1	anti-miR-21 oligo(2′-O-methylribonucleotide)	0.22
CCCCCCCCCCCCCCCCCCNC(=O)c1ccc(OCCC[Si](CCCSCC(=O)NCCC[P+](c2ccccc2)(c2ccccc2)c2ccccc2)(CCCSCC(=O)NCCC[P+](c2ccccc2)(c2ccccc2)c2ccccc2)CCCSCC(=O)NCCC[P+](c2ccccc2)(c2ccccc2)c2ccccc2)cc1	anti-miR-21 oligo(2′-O-methylribonucleotide)	0.23
CCCCCCCCCCCCNC(=O)c1ccc(OCCC[Si](CCCSCC(=O)NCCC[P+](c2ccccc2)(c2ccccc2)c2ccccc2)(CCCSCC(=O)NCCC[P+](c2ccccc2)(c2ccccc2)c2ccccc2)CCCSCC(=O)NCCC[P+](c2ccccc2)(c2ccccc2)c2ccccc2)cc1	anti-miR-21 oligo(2′-O-methylribonucleotide)	0.14
CCCCCCCCCCCCCCCCCCNC(=O)c1cc(OCCC[Si](CCCSCC(=O)NCCC[P+](c2ccccc2)(c2ccccc2)c2ccccc2)(CCCSCC(=O)NCCC[P+](c2ccccc2)(c2ccccc2)c2ccccc2)CCCSCC(=O)NCCC[P+](c2ccccc2)(c2ccccc2)c2ccccc2)cc(C(=O)NCCCCCCCCCCCCCCCCCC)c1	anti-miR-21 oligo(2′-O-methylribonucleotide)	0.20
CCCCCCCCCCCCCCCCCCNC(=O)c1cc(OCCC[Si](CCCSCC(=O)NCCC[P+](c2ccccc2)(c2ccccc2)c2ccccc2)(CCCSCC(=O)NCCC[P+](c2ccccc2)(c2ccccc2)c2ccccc2)CCCSCC(=O)NCCC[P+](c2ccccc2)(c2ccccc2)c2ccccc2)cc(OCCC[Si](CCCSCC(=O)NCCC[P+](c2ccccc2)(c2ccccc2)c2ccccc2)(CCCSCC(=O)NCCC[P+](c2ccccc2)(c2ccccc2)c2ccccc2)CCCSCC(=O)NCCC[P+](c2ccccc2)(c2ccccc2)c2ccccc2)c1	anti-miR-21 oligo(2′-O-methylribonucleotide)	0.18
CCCCCCCCCCCCNC(=O)c1cc(OCCC[Si](CCCSCC(=O)NCCC[P+](c2ccccc2)(c2ccccc2)c2ccccc2)(CCCSCC(=O)NCCC[P+](c2ccccc2)(c2ccccc2)c2ccccc2)CCCSCC(=O)NCCC[P+](c2ccccc2)(c2ccccc2)c2ccccc2)cc(C(=O)NCCCCCCCCCCCC)c1	anti-miR-21 oligo(2′-O-methylribonucleotide)	0.13

* * *

The entries below come with measured mean diameter of dendriplex values attached.
# Tested on: anti-miR-21 oligo(2′-O-methylribonucleotide)
# Method summary: DLS of dendriplexes with anti-miR-21 oligonucleotide
# Type: physicochemical
# Experimental context: CR 10, anti-miR-21 500 nM, 0.9% NaCl
Readout kind: mean diameter of dendriplex

Compound smiles	Endpoint value
CCCCCCCCCCCCNC(=O)c1ccc(OCCC[Si](CCCSCC(=O)NCCC[P+](c2ccccc2)(c2ccccc2)c2ccccc2)(CCCSCC(=O)NCCC[P+](c2ccccc2)(c2ccccc2)c2ccccc2)CCCSCC(=O)NCCC[P+](c2ccccc2)(c2ccccc2)c2ccccc2)cc1	> 1 μm
CCCCCCCCCCCCCCCCCCNC(=O)c1ccc(OCCC[Si](CCCSCC(=O)NCCC[P+](c2ccccc2)(c2ccccc2)c2ccccc2)(CCCSCC(=O)NCCC[P+](c2ccccc2)(c2ccccc2)c2ccccc2)CCCSCC(=O)NCCC[P+](c2ccccc2)(c2ccccc2)c2ccccc2)cc1	> 1 μm

* * *

# Test system: K. pneumoniae ESBL+—clinical isolate C1914
# Method summary: Microdilution broth MIC
# Assay type: cell-based
# Experimental context: Klebsiella pneumoniae, 24 h
Readout kind: MIC

Compound	Endpoint value
CCCCCCCCCCCCCCCCCCNC(=O)c1cc(OCCC[Si](CCCSCC(=O)NCCC[P+](c2ccccc2)(c2ccccc2)c2ccccc2)(CCCSCC(=O)NCCC[P+](c2ccccc2)(c2ccccc2)c2ccccc2)CCCSCC(=O)NCCC[P+](c2ccccc2)(c2ccccc2)c2ccccc2)cc(C(=O)NCCCCCCCCCCCCCCCCCC)c1 [DnP3-2C18]	> 12.5 µM
CCCCCCCCCCCCCCCCCCNC(=O)c1ccc(OCCC[Si](CCCSCC(=O)NCCC[P+](c2ccccc2)(c2ccccc2)c2ccccc2)(CCCSCC(=O)NCCC[P+](c2ccccc2)(c2ccccc2)c2ccccc2)CCCSCC(=O)NCCC[P+](c2ccccc2)(c2ccccc2)c2ccccc2)cc1 [DnP3-1C18]	> 6.25 µM
CCCCCCCCCCCCCCCCCCNC(=O)c1cc(OCCC[Si](CCCSCC(=O)NCCC[P+](c2ccccc2)(c2ccccc2)c2ccccc2)(CCCSCC(=O)NCCC[P+](c2ccccc2)(c2ccccc2)c2ccccc2)CCCSCC(=O)NCCC[P+](c2ccccc2)(c2ccccc2)c2ccccc2)cc(OCCC[Si](CCCSCC(=O)NCCC[P+](c2ccccc2)(c2ccccc2)c2ccccc2)(CCCSCC(=O)NCCC[P+](c2ccccc2)(c2ccccc2)c2ccccc2)CCCSCC(=O)NCCC[P+](c2ccccc2)(c2ccccc2)c2ccccc2)c1 [DnP6-1C18]	> 6.25 µM
